Values were extracted from PubChem BioAssay.

# Protocol: growth inhibitors of H69AR lung tumor, primary screen, human, duplicate replicates (AID 580);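 also: 100% = mean luminescence of untreated wells and 0% = no signal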
# Condition Description: H69AR lung tumor cells viability, ATP luminescence, 72 h; at 10 µM; active compounds read low
Measurement Name: viability (%)
Give the value in % but do not write % after it.

Examples from the recorded data:
Incoming: I have this molecule here, `Cc1cccn2c(=O)c3cc(C(=O)N4CCCc5ccccc54)n(C)c3nc12` , and I need its recorded viability.
Outgoing: 90.2

Incoming: I have this molecule here, `CCn1c(SCC(N)=O)nc2c1c(=O)n(C)c(=O)n2C` , and I need its recorded viability.
Outgoing: 95.9

Incoming: I have this molecule here, `Cc1ccc(-c2nnc(N(C)C(=O)c3ccccn3)s2)cn1` , and I need its recorded viability.
Outgoing: 103

Incoming: I have this molecule here, COc1ccc(C2/C(=C(/O)c3cnn(-c4ccccc4)c3C)C(=O)C(=O)N2CCN(C)C)cc1OC (stereo unspecified) , and I need its recorded viability.
Outgoing: 101

Incoming: I have this molecule here, `CCOc1ccc(NCCC(=O)c2ccc3c(c2)OCO3)cc1` , and I need its recorded viability.
Outgoing: 66.1

Next:
Incoming: I have this molecule here, `Cc1cc(OCC(=O)Nc2ccc3oc(-c4ccncc4)nc3c2)ccc1Cl` , and I need its recorded viability.
Outgoing: 60.1

Incoming: I have this molecule here, Cc1cccc(C)c1NC(=O)CS(=O)CC(=O)NC1CCCc2ccccc21 (stereo unspecified) , and I need its recorded viability.
Outgoing: 88.7

Incoming: I have this molecule here, O=C(C1CCCO1)N1CCN(Cc2nc3ccccc3c(=O)[nH]2)CC1 (stereo unspecified) , and I need its recorded viability.
Outgoing: 94.9

Incoming: I have this molecule here, `c1ccc(-c2cc3c(nn2)CCc2nonc2-3)cc1` , and I need its recorded viability.
Outgoing: 97.8

Incoming: I have this molecule here, COC(=O)C1=C(C)NC(=O)C1(NC(=O)c1cccnc1)C(F)(F)F (stereo unspecified) , and I need its recorded viability.
Outgoing: 103

Incoming: I have this molecule here, `c1ccc(-n2ncc3c(N4CCCCC4)ncnc32)cc1` , and I need its recorded viability.
Outgoing: 70
